Provenance of the data: the supplement of paper PMC9170038

tested on: MS2 coat protein; assay: apparent KD of MS2 coat protein; designed switch direction (-1 OFF switch, 1 ON switch): -1; higher = weaker reporter binding; conditions: input ligand: FMN 200 uM
parameter measured: apparent KD of MS2 coat protein (nM)
Give the value in nM but do not write nM after it.

Please review the following examples before continuing.
1) CUGAUGUCAGGAUAUCGGUGGCUCACUAAUGUGUGCCAGACCGAGAAGGGACAUGAGGAUCACCCAUGUCUUUA [Exclusion 4 (Mod5b of #36 by Marzena11)] (Eterna round: R97, puzzle: Exclusion 4)	42.4
2) AAUUAAUGAGGAUAUACAGUGUAAAACAUGAGGAUCACCCAUGUUCUUCAAUUAGUAUUUGUAGAAGGCAUAGGUA [JR_Ex5_Sub093] (Eterna round: R97, puzzle: Exclusion 5)	32

Now for another entry.
[ask] Name the recorded apparent KD of MS2 coat protein of the sequence listed here: AAGCACCAUGUGAGGAUAUGCCACGGAACCGAUGGGCAGAAGGCACAUGAGGAUCACCCAUGUGACCGGUGGAU [Eternabot (Original) Solution 48] (Eterna round: R97, puzzle: Brourd's mod of Exclusion 4)
[reply] 236

* * *

tested on: K4 kissing-loop RNA reporter; assay: apparent KD of K4 kissing-loop reporter; higher = weaker reporter binding; conditions: Eterna round: R107; input ligand: arginine 13.2 mM
Each entry below lists one item and its recorded apparent KD of K4 kissing-loop reporter value.
Quick reminder: number only, in nM, skip the unit.

1) AGACUACCUACACUGUCAAUAGACAGUGACUAGGAUAUGCUGAUAAGCAGAAGGAGUGAUGUUCCUGGUAGUCAAAUAAAAUAAU [FmnAX 12 #SwitchBubble #StaticStem #K4Early]	295
2) CCGCUACCCUCAGGAUAUUAAAUAUUAGUGAUGUUAGUAAACCGAUGGCGAAAGCCAUCGGUAUGUUGAGAAGGGAGGGUAGCGG [whbob_SS_FMNB__2th197]	1810

[ask] Fill in: apparent KD of K4 kissing-loop reporter on K4 kissing-loop RNA reporter, entry GCAGUGAUGUUGCGCAGGUACAGUGGAGUGCGAGGACCGGUACGGCCGCCACUCGUACAGAACUAGCUAAUGUAUGGAUAGGUGA [#11 K4 Tryptophan A Same State]
[reply] 329

[ask] Find apparent KD of K4 kissing-loop reporter for AAUAAAAUCACGGCCGCCACUGAUUUUUUUAUUAGGAGUGAUGUUCCUUUGUCUAUAUACCUUAACAGGACCGGGUGAAUAUUUA [JR_SSTryptoB_Sub022] on K4 kissing-loop RNA reporter and write it down.
[reply] 93.4

[ask] Give apparent KD of K4 kissing-loop reporter for this entry on K4 kissing-loop RNA reporter: AAGCAGUCUCUUGUAGUCAUCGAAGAUGAACGAGGACCGGUACGGCCGCCACUCGGAGUGAUGUUCCGAAGACUGCAAAAUAAAA [MatMod 17 - Jieux - Exclusion - Tryptophan A]
[reply] 422

[ask] # return apparent KD of K4 kissing-loop reporter for CGCAAGCAGCCAGUGAUGUUGGCUGCCUUGCGAGGACCGGUACGGCCGCCACUCGAAGGCAGCUACUGGUAAACCGUCUAACGGA [Atere] , test system: K4 kissing-loop RNA reporter
[reply] 105

[ask] State the measured apparent KD of K4 kissing-loop reporter (K4 kissing-loop RNA reporter) of AAGCCAGAGAUUGCUGCGGGUUCCAGAGAUACCAGCCGUAUUGAAGGCCCUUGGCAGCUCGAGUGAUGUUCGAGCCGUCUCCGGC [Onte]
[reply] 110

[ask] Consider the sequence UUUAAAUAUAGUGAUGUUAUAUAACAAUGACGAGGACCGGUACGGCCGCCACUCGAGAGAGAUAAUGGUCGUUAGAAUCUAACGC [AstrosSSTryA#5] tested on K4 kissing-loop RNA reporter; state its apparent KD of K4 kissing-loop reporter.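 Also: bound reporter read as fluorescence of individual clusters on recovered sequencing chips by microscopy, with normalized cluster intensities fitted with a binding model.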
[reply] 778

[ask] Look up K4 kissing-loop RNA reporter data: apparent KD of K4 kissing-loop reporter of CUGAUGCUGAUGCGGCGGCCGGUGGUCGUGCGAGGACCGGUACGGCCGCCACUCGCGCGAGUGAUGUUCGCGCGUCGUCGUCGUC [First Shot] , then report it.
[reply] 91.4

[ask] Print K4 kissing-loop RNA reporter apparent KD of K4 kissing-loop reporter for UUUUACGAGUGAUGUUCGUAUUGUAAUAGUUAGGAUAUCGUUUUUUCGAGAAGGAACUUCGAAGUGAUACGAAAGUAUCGCUUCG [FMN A 10] .
[reply] 142

[ask] Fetch value of apparent KD of K4 kissing-loop reporter on K4 kissing-loop RNA reporter for UGACAUUGCUCAGAUACCAGACUUGAGGAACACCCAAGUGCCAAAUACGUACAAAUAAAAGUCCCUUGGCAGCUGAGCAAUGUCU [TheoBX 12] .
[reply] 23.5
